target: IDH1(R132H) (Homo sapiens, UniProt O75874, R132H); test: Enzyme assay (NADPH/diaphorase/resazurin), IDH1 mutant inhibition; settings: 16 h pre-incubation with enzyme and NADPH at 23° C.
Sequence (O75874 whole entry R132H): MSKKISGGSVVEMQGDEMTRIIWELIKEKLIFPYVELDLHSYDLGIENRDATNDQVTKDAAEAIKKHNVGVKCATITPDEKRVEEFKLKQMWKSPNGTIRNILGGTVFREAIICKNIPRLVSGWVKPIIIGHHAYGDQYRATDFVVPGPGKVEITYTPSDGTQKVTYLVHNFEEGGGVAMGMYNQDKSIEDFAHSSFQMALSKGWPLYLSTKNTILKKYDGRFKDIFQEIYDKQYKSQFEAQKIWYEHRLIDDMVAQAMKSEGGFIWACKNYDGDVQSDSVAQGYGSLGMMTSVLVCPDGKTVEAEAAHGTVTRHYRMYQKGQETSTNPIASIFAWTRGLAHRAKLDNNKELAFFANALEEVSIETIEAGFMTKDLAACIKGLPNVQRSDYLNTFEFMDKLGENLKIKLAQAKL

[
  {
    "STRUCTURE SMILES": "N#Cc1ccnc(N2[C@H](C(=O)N(c3cccc(F)c3)[C@H](C(=O)NC3CC(F)(F)C3)c3ccccc3Cl)CCS2(=O)=O)c1",
    "IC50": "< 0.02 µM"
  }
]
